Reported AntiCD3/CD28 (CD69+ CD4 T cells) repeat 1, % inhibition by item:
Target: chimeric BTLA of humanised-BTLA mice (human extracellular region, murine transmembrane and signaling … (human; mouse, UniProt Q7TSA3 184-306, limits assumed)
Sequence (Q7TSA3 other isoform, or with tags, fused parts or gaps mutant limits assumed): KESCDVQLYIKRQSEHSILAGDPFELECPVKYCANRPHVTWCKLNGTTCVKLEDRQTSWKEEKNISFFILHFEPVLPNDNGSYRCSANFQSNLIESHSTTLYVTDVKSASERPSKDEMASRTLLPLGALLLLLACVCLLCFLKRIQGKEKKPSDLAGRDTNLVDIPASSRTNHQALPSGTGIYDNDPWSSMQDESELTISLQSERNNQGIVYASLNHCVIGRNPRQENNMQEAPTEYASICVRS
Experiment: cell-based or functional assay
Numbers only; they are read as %.

Binder	Recorded value
8C4 (antibody, IgG1, V domains shown) VH: DVQLQESGPGMVKPSQSLSLTCTVTGYSITSGYDWHWIRHFPGNKLEWMGYISYSGSTNYNPSLKSRISITHDTSKNHFFLKLNSVTTEDTATYYCARGTPVVAEDYFDYWGQGTTLTVSS VL: QAVVTQESALSTSPGETVTLTCRSSTGAVTTSNYANWVQEKPDHLFTGLIGATNNRAPGVPARFSGSLIGDKAALTITGAQTEDEAIYFCALWYSNHLVFGGGTKLTVLG	29
4B1 (antibody, IgG1, V domains shown) VH: QVQLQQSGAELARPGASVRLSCKASGYTFTSYGLIWLKQRTGQGLEWIGEIYPRSGSTYYNEWFKGKATLTADKSSNTAFMELRSLTSEDSAVYFCARRRGTGDGFDYWGQGTILTVSS VL: DIQMTQTTSSLSASLGDRVTISCSASQGISNYLNWYQQKPDGTVKLLIYYTSSLHSGVPSRFSGSGSGTDYSLTISNLEPEDIATYYCQQYIELPFTFGSGTKLEIK	47
2.8.6 (antibody, IgG1, V domains shown) VH: QVQLKESGPGLVAPSQSLSITCTVSGFSLTTYGVHWVRQSPGKGLEWLGVMWPGGRTSYNPAPMSRLSISKDNSKSQVFLKMNSLQTDDTAMYYCVRGDYEYDYYAMDYWGQGTSVTVSS VL: QIVLSQSPAILSASPGEKVTMTCRASSSVSYMHWYQQKPGSSPKPWIYATSNLASGVPARFSGSGSGTSYSLTISRMEAEDAATYYCHQWSSNPYTFGGGTKLEIK	58

Switching to the query record.
AntiCD3/CD28 (CD69+ CD4 T cells) repeat 1, % inhibition for 3A9 (antibody, IgG1, V domains shown) VH: QVQLKQSGAELVRPGASVKLSCKASGYTFTDYYINWVKQRPGQGLEWIARIYPGSGNTYYNEKFKGKATLTAEKSSSTAYMQLSSLTSEDSAVYFCARGYGNSDYWGQGTTLTVSS VL: DILLTQSPAILSVSPGERVSFSCRASQSIGTRIHWYQQRTNGSPRLLIKYASESISGIPSRFSGSGSGTDFTLSINSVESEDIADYYCQQSNSWPYTFGGGTKLEIK ? 22
